Where do these numbers come from? They come from patent US20100035871A1.

TARGET: human 5-HT2C receptor (Homo sapiens)
Construct: expressed in transfected cells; host or cells: CHO (Chinese Hamster Ovary) cells; membrane preparation
Sequence (P28335 33-458): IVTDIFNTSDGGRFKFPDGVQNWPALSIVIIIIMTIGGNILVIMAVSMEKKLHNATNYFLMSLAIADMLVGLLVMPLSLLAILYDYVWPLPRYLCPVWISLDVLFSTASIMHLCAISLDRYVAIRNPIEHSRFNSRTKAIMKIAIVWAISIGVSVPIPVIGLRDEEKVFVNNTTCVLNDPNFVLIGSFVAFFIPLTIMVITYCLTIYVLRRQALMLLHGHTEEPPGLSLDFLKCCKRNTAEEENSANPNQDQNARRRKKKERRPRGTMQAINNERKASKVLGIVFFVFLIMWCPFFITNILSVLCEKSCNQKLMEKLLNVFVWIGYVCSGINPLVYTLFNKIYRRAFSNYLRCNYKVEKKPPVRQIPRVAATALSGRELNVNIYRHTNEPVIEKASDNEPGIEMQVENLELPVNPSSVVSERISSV
TEST NAME: 5-HT2C receptor binding, [125I]DOI displacement, membranes of transfected CHO cells
CONDITION CONTEXT: read-out: 5-HT2C Binding Ki avg
ASSAY READOUT: pKi
// pKi is dimensionless: -log10 of concentration (M)

q: human 5-HT2C receptor (Homo sapiens) / pKi / NC[C@H]1CNc2cccc(-c3ccccc3C(F)(F)F)c2O1 : value?
a: 7.46

q: What measured pKi is associated with COc1ccccc1-c1cccc2c1OC(CN)CN2C (racemic) on human 5-HT2C receptor (Homo sapiens)?
a: 7.33

q: Find pKi (human 5-HT2C receptor (Homo sapiens)) for the entry COc1ccc(-c2cc(F)cc3c2NC(CN)CO3)c(Cl)c1 (racemic)
a: 7.43

q: Quick check: pKi on human 5-HT2C receptor (Homo sapiens), item NCC1COc2cc(Cl)cc(-c3ccccc3F)c2N1 (racemic) ?
a: 6.82

q: What measured pKi is associated with NCC1COc2cc(F)cc(-c3ccccc3F)c2N1 (racemic) on human 5-HT2C receptor (Homo sapiens)?
a: 6.10

q: # query: pKi | item Cc1ccccc1-c1cc(F)cc2c1NC(CN)CO2 (racemic) | system: human 5-HT2C receptor (Homo sapiens)
a: 6.81

q: Form field: pKi recorded for CN1CC(CN)Oc2c(-c3ccccc3)cccc21 (racemic) with human 5-HT2C receptor (Homo sapiens) (enter value)
a: 6.79

q: Query for human 5-HT2C receptor (Homo sapiens): what pKi does the record show for NCC1COc2cc(Cl)cc(-c3ccccc3Cl)c2N1 (racemic) ?
a: 7.33

q: Given the entry COc1ccc(-c2cc(F)cc3c2NC(CN)CO3)c(C)c1 (racemic) , what pKi was observed with human 5-HT2C receptor (Homo sapiens)?
a: 6.80

q: Give human 5-HT2C receptor (Homo sapiens) pKi for Cc1ccc(-c2cc(Cl)cc3c2NC(CN)CO3)c(C(F)(F)F)c1 (racemic)
a: 7.52

q: Record CCN1CC(CN)Oc2c(-c3ccccc3Cl)cccc21 (racemic) : what is its pKi with human 5-HT2C receptor (Homo sapiens)?
a: 7.09

q: # query: pKi | item COc1ccc(-c2cc(Cl)cc3c2NC(CN)CO3)c(C)c1 (racemic) | system: human 5-HT2C receptor (Homo sapiens)
a: 7.27

q: # query: pKi | item NCC1CN(CC2CC2)c2cccc(-c3ccccc3Cl)c2O1 (racemic) | system: human 5-HT2C receptor (Homo sapiens)
a: 7.64

q: Write down the reported pKi of CN1CC(CN)Oc2c(-c3cccc(Cl)c3)cccc21 (racemic) , test system: human 5-HT2C receptor (Homo sapiens).
a: 6.59

q: // lookup pKi | system=human 5-HT2C receptor (Homo sapiens) | key= COc1ccc(-c2cc(Cl)cc3c2NC(CN)CO3)c(Cl)c1 (racemic)
a: 7.53

q: I'm curious: which pKi was measured for CCCN1CC(CN)Oc2c(-c3ccccc3Cl)cccc21 (racemic) tested on human 5-HT2C receptor (Homo sapiens)?
a: 7.19

q: Entry COc1ccccc1-c1cc(F)cc2c1NC(CN)CO2 (racemic) , system human 5-HT2C receptor (Homo sapiens): what pKi was measured?
a: 6.54

q: Please provide the recorded pKi for NC[C@H]1CNc2cccc(-c3ccccc3Cl)c2O1 , tested on human 5-HT2C receptor (Homo sapiens).
a: 7.83

q: Identify the measured pKi of COc1ccc(-c2cccc3c2O[C@@H](CN)CN3)cc1 for human 5-HT2C receptor (Homo sapiens).
a: 6.87

q: Request - read-out pKi | tested on human 5-HT2C receptor (Homo sapiens) | molecule COc1ccc(-c2cccc3c2O[C@H](CN)CN3)c(C)c1
a: 6.84

q: Quick check: pKi on human 5-HT2C receptor (Homo sapiens), item NCC1COc2cc(F)cc(-c3ccccc3C(F)(F)F)c2N1 (racemic) ?
a: 7.71

q: Can you look up pKi on human 5-HT2C receptor (Homo sapiens) for NCC1CNc2cccc(-c3ccccc3Cl)c2O1 (racemic) ?
a: 7.85

q: Look up pKi with human 5-HT2C receptor (Homo sapiens) for this molecule: CN1CC(CN)Oc2c(-c3cc(Cl)ccc3Cl)cccc21 (racemic)
a: 7.89

q: What measured pKi is associated with COc1ccc(-c2cccc3c2OC(CN)CN3C)cc1 (racemic) on human 5-HT2C receptor (Homo sapiens)?
a: 7.92

q: I'm curious: which pKi was measured for Cc1ccccc1-c1cc(Cl)cc2c1NC(CN)CO2 (racemic) tested on human 5-HT2C receptor (Homo sapiens)?
a: 6.81

q: Report pKi for Cc1ccc(-c2cc(F)cc3c2NC(CN)CO3)c(C(F)(F)F)c1 (racemic) tested on human 5-HT2C receptor (Homo sapiens).
a: 7.19

q: Kindly state the measured pKi obtained for NCC1CNc2cccc(-c3cc(Cl)ccc3Cl)c2O1 (racemic) with human 5-HT2C receptor (Homo sapiens).
a: 8.19

q: Quick check: pKi on human 5-HT2C receptor (Homo sapiens), item COc1ccc(-c2cc(Cl)cc3c2N(C)C(CN)CO3)c(C)c1 (racemic) ?
a: 5.95

q: # returns recorded pKi (system: human 5-HT2C receptor (Homo sapiens)) for Cc1cc(Cl)ccc1-c1cccc2c1OC(CN)CN2 (racemic)
a: 7.71

q: Form: Entry = Cc1ccccc1-c1cccc2c1OC(CN)CN2C (racemic) | System = human 5-HT2C receptor (Homo sapiens) | pKi = ____
a: 7.57

q: Record lookup: for human 5-HT2C receptor (Homo sapiens), what pKi belongs to COc1ccccc1-c1cc(Cl)cc2c1NC(CN)CO2 (racemic) ?
a: 6.13

q: Recorded pKi for NC[C@@H]1CNc2cccc(-c3ccccc3Cl)c2O1 with human 5-HT2C receptor (Homo sapiens), please?
a: 7.22
